System: MCF10A
Test: one-nucleolus phenotype percent effect (relative to siNT 0% and siNOL11 100%); higher = more cells with one nucleolus (ribosome biogenesis inhibition)
Settings: 20 nM; 72 h
assay metric: one-nucleolus phenotype percent effect (%)
# output: bare number, implied unit %

QUERY: What does the data say about its one-nucleolus phenotype percent effect? Entry: GCAUGUGAUGAAGCAAAUCAGU [hsa-miR-3607-5p]
RESULT: -2.14

QUERY: Recorded one-nucleolus phenotype percent effect for UGGCUCAGUUCAGCAGGAACAG [hsa-miR-24-3p] , please?
RESULT: 2.42

QUERY: Any idea what one-nucleolus phenotype percent effect was measured for GGGCGCCUGUGAUCCCAAC [hsa-miR-566] ?
RESULT: -9.02

QUERY: Item under review: UCUGGAUUGAAGAGACGACCCA [hsa-miR-6839-5p] . Reported one-nucleolus phenotype percent effect?
RESULT: 2.28

QUERY: # lookup: one-nucleolus phenotype percent effect of UGUGCUUGCUCGUCCCGCCCGCA [hsa-miR-636]
RESULT: 5.25

QUERY: Find the recorded one-nucleolus phenotype percent effect belonging to UAGCAGCACAGAAAUAUUGGC [hsa-miR-195-5p] and report it.
RESULT: 13.4
